// data source = patent US5567605A

- Tested on: D-allose dehydrogenase
- test.summary: NAD cofactor coupled D-allose dehydrogenase spectrophotometric enzyme assay (340 nm)
- Type: biochemical, Exophiala pisciphila
- reported.conditions: Sugar 100 mM as substrate, pH 9.0, 30° C., same dose of enzyme extract
This listing pairs compounds with measured Activity (carbohydrate specificity).

O=C[C@H](O)[C@H](O)[C@H](O)[C@H](O)CO [D-allose]
2.93 µmol/min/mL
O=C[C@@H](O)[C@H](O)[C@H](O)[C@H](O)CO [D-altrose, reference compound]
< 0.07 µmol/min/mL
O=C[C@H](O)[C@@H](O)[C@H](O)[C@H](O)CO [D-glucose, reference compound]
< 0.07 µmol/min/mL
O=C[C@@H](O)[C@@H](O)[C@H](O)[C@H](O)CO [D-mannose, reference compound]
< 0.07 µmol/min/mL

Consider the additional compound presented here.
Give Activity (carbohydrate specificity) for this entry on D-allose dehydrogenase: O=C[C@H](O)[C@H](O)[C@H](O)CO [D-ribose, reference compound]
< 0.07 µmol/min/mL
